- measured_target: Peroxisome proliferator-activated receptor alpha (Mus musculus) (UniProt P23204)
- Sequence (P23204 whole entry): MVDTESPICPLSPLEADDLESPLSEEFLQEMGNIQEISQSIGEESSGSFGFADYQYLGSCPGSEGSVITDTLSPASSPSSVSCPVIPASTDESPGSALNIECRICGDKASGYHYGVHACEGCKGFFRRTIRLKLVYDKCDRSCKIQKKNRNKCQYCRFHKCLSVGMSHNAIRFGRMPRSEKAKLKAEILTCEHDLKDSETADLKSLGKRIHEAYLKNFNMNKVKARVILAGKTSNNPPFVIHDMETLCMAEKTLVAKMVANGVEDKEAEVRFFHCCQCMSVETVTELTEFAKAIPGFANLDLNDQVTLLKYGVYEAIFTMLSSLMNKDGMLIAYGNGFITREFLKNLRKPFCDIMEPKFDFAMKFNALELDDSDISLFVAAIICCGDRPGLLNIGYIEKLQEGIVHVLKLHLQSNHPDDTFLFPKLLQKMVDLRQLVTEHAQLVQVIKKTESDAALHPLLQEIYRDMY
- test_method_notes: Agonist activity at PPARalpha in C57BL/6N mouse primary hepatocytes assessed as SREBF1 mRNA expression at 50 uM measured after 18 hrs by qRT-PCR analysis
- Assay type: cell-based
Activity calls are given as the source filed them. The calls are words filed in the database; no cut-off is given here.
The categories you may choose from are t (active), f (inactive)

Look up the recorded call for CCCCC/C=C/C(=O)CCCCCCCC(=O)O in this test.
f

Look up the recorded call for Cc1cccc(Nc2cc(Cl)nc(SCC(=O)O)n2)c1C in this test.
t

Look up the recorded call for CCCCCCCc1cc(CCCCCC(=O)O)no1 in this test.
t

Moving on to the next compound.
Look up the recorded call for CCCCCCCC(=O)/C=C/CCCCCC(=O)O in this test.
f

###

- measured_target: Peroxisome proliferator-activated receptor gamma (Homo sapiens, UniProt P37231)
- Sequence (P37231 whole entry, the tested form may be a part): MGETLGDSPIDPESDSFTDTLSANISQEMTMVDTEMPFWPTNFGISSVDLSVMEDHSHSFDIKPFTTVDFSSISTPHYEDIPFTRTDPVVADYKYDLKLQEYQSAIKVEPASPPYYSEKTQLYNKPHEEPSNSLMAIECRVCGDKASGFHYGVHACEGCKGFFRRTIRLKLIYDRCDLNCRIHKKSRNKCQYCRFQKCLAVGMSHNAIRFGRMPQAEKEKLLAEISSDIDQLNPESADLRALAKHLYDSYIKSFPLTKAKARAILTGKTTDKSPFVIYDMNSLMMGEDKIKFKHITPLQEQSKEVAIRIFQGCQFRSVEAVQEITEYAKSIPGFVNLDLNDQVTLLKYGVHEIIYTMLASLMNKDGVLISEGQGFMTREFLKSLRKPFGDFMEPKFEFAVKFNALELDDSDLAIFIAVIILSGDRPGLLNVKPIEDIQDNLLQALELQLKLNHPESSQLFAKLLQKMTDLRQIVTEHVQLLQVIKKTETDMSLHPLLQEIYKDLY
- test_method_notes: Agonist activity at full length human FLAG-tagged GAL4-DBD fused PPARgamma LBD (205 to 505 residues) expressed in COS1 cells measured after 18 hrs by dual luciferase reporter gene assay
measured_parameter: pEC50
Field pEC50 (float): negative decimal logarithm of the concentration in molar.

Retrieve pEC50 on Peroxisome proliferator-activated receptor gamma (Homo sapiens, UniProt P37231); query CCCCCCCc1cc(CCCCCC(=O)O)no1
2.70

###

- System: SGBS
- test_method_notes: Upregulation of PLIN1 gene expression in human preadipocyte derived from Simpson-Golabi-Behmel syndrome (SGBS) patient at 25 uM measured for 12 days by qRT-PCR analysis
- Assay type: functional, cell-based
The source made the active and inactive calls. No cut-off for these calls is given here.
measured_parameter: Activity

Retrieve Activity on SGBS; query CCCCC/C=C/C(=O)CCCCCCCC(=O)O
Active

Retrieve Activity on SGBS; query CCCCCCCC(=O)/C=C/CCCCCC(=O)O
Active

Retrieve Activity on SGBS; query CCCCCCCc1cc(CCCCCC(=O)O)no1
Active

Retrieve Activity on SGBS; query Cc1cccc(Nc2cc(Cl)nc(SCC(=O)O)n2)c1C
Active
